Reported pIC50 values for a set of molecules
Target: PTGER4 (EP4) (Homo sapiens, UniProt P35408)
Sequence (P35408 whole entry): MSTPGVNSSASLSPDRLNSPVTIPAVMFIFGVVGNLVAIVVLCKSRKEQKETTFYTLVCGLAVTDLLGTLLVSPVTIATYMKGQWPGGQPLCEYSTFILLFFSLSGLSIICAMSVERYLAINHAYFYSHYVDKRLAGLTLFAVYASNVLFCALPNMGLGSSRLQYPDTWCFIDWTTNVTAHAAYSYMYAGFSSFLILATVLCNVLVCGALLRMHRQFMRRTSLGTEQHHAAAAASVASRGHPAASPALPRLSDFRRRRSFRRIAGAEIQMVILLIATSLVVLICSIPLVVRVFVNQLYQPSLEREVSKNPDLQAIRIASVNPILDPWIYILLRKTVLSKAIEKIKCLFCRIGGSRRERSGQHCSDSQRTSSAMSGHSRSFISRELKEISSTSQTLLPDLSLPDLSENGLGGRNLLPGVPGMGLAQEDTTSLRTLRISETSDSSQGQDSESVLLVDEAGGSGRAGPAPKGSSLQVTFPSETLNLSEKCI
Assay: hEP4 b-Arrestin Assay (PathHunter HEK 293 PTGER4 b-arrestin cells, PGE2 20 nM)
Details: antagonistic activity, beta-arrestin assay, HEK 293 PTGER4 cells, PGE2 20 nM (EC80); read-out: hEP4 b-arr IC50
pIC50: −log10 of the molar value.

{"Mol": "CCOc1cc(-c2cc(NCCc3c(C)ccc4ccccc34)ncn2)sc1C(=O)O", "pIC50": 6.75}
{"Mol": "CCOc1cc(-c2cc(NCCc3cccc4cccnc34)ncn2)sc1-c1noc(=O)[nH]1", "pIC50": 7.82}
{"Mol": "CCOc1cc(-c2cc(NCCc3cccc4c(F)cccc34)ncn2)ccc1CC(=O)O", "pIC50": 6.53}
{"Mol": "CCOc1cc(-c2cc(NCCc3ccc(C)c4ccccc34)ncn2)ccc1C(=O)O", "pIC50": 6.54}
{"Mol": "CCOc1cc(-c2cc(NCCc3cccc4[nH]ccc34)ncn2)sc1C(=O)O", "pIC50": 6.41}
{"Mol": "CCOc1cc(-c2cc(NCCc3c(OC)ccc4c3ccn4C)ncn2)ccc1CC(=O)O", "pIC50": 6.12}
{"Mol": "CSc1cc(-c2cc(NCCc3c(Br)cc(F)c4ccccc34)ncn2)ccc1C(=O)O", "pIC50": 6.39}
{"Mol": "COc1ccc2cc(F)cc(CCNc3cc(-c4cc(C(F)(F)F)c(C(=O)O)s4)ncn3)c2n1", "pIC50": 6.97}
{"Mol": "COc1ccc2ccccc2c1CCNc1cc(-c2cc(OCCN(C)C)c(C(=O)O)s2)ncn1", "pIC50": 5.72}
{"Mol": "CCSc1cc(-c2cc(NCCc3ccc(C)c4ccccc34)ncn2)ccc1C(=O)O", "pIC50": 6.69}
{"Mol": "CCOc1cc(-c2cc(NCCc3ccc(Br)c4ccn(C)c34)ncn2)ccc1C(=O)O", "pIC50": 6.63}
{"Mol": "CCOc1cc(-c2cc(NCCc3cccc4c(F)cccc34)ncn2)ccc1C(=O)O", "pIC50": 6.15}
{"Mol": "CCOc1cc(-c2cc(NCCc3cccc4ccncc34)ncn2)sc1-c1noc(=O)[nH]1", "pIC50": 7.32}
{"Mol": "CCOc1cc(-c2cc(NCCc3c(C#N)ccc4c(OC)ccc(F)c34)ncn2)sc1C(=O)O", "pIC50": 8.52}
{"Mol": "CCOc1cc(-c2cc(NCCc3c(OC(F)F)ccc4ccccc34)ncn2)sc1C(=O)O", "pIC50": 7.72}
{"Mol": "CCOc1cc(-c2cc(NCCc3c(OC)ccc4ccccc34)ncn2)sc1C(=O)NS(N)(=O)=O", "pIC50": 7.64}
{"Mol": "CCOc1cc(-c2cc(NCCc3cccc4sccc34)ncn2)sc1C(=O)O", "pIC50": 6.65}
